system: clinical methicillin-resistant Staphylococcus aureus (MRSA) isolates; assay: MIC/MBC against clinical MRSA isolates; settings: MRSA / NRS383 / USA200
attribute_measured: MIC (µM)

> print(dat)
                               smiles.entry  result.value
1  CCCCCCCCCCc1ccc(NS(=O)(=O)c2ccc(O)c(C(=O)O)c2)cc1             4
2  O=C(O)c1cc(S(=O)(=O)Nc2ccc(CCC3CCCCC3)cc2)ccc1O            16
3  CCCCCCCc1ccc(NS(=O)(=O)c2ccc(O)c(C(=O)O)c2)cc1            16
4  CC(C)CCCCc1ccc(NS(=O)(=O)c2ccc(O)c(C(=O)O)c2)cc1            16

* * *

test system: Staphylococcus aureus ATCC 6538 adherent organisms (biofilm); assay: MIC/MBC in adherent-cell biofilm of S. aureus ATCC 6538; type: cell-based; settings: S. aureus ATCC 6538, regrowth 20 h in antibiotic-free MHB
attribute_measured: Adherent organisms (biofilm) MBC^b

molecule	result_value
CC(=O)NC[C@H]1CN(c2ccc(N3CCOCC3)c(F)c2)C(=O)O1 [Linezolid, linezolid, reference compound]	16 µM
CC(C)CCCCc1ccc(NS(=O)(=O)c2ccc(O)c(C(=O)O)c2)cc1 [Compound 2j]	128 µM
CCCCCCc1ccc(NS(=O)(=O)c2ccc(O)c(C(=O)O)c2)cc1 [Compound 2d]	>128 µM
CCCCCCCCCCc1ccc(NS(=O)(=O)c2ccc(O)c(C(=O)O)c2)cc1 [Compound 2f]	128 µM
CCCCCCCc1ccc(NS(=O)(=O)c2ccc(O)c(C(=O)O)c2)cc1 [Compound 2e]	128 µM
CN[C@H](CC(C)C)C(=O)N[C@H]1C(=O)N[C@@H](CC(N)=O)C(=O)N[C@H]2C(=O)N[C@H]3C(=O)N[C@H](C(=O)N[C@H](C(=O)O)c4cc(O)cc(O)c4-c4cc3ccc4O)[C@H](O)c3ccc(c(Cl)c3)Oc3cc2cc(c3O[C@@H]2O[C@H](CO)[C@@H](O)[C@H](O)[C@H]2O[C@H]2C[C@](C)(N)[C@H](O)[C@H](C)O2)Oc2ccc(cc2Cl)[C@H]1O [Vancomycin, vancomycin, reference compound]	8 µM
CC(C)CCCc1ccc(NS(=O)(=O)c2ccc(O)c(C(=O)O)c2)cc1 [Compound 2i]	128 µM
